- System tested: CYP2C19 (Homo sapiens, UniProt P33261)
- Construct: Pooled human liver microsomes were obtained from Biopredic (Rennes, France); tissue Biopredic (Rennes, France); host or cells: pooled human liver microsomes, seventeen donors
- Sequence (P33261 whole entry): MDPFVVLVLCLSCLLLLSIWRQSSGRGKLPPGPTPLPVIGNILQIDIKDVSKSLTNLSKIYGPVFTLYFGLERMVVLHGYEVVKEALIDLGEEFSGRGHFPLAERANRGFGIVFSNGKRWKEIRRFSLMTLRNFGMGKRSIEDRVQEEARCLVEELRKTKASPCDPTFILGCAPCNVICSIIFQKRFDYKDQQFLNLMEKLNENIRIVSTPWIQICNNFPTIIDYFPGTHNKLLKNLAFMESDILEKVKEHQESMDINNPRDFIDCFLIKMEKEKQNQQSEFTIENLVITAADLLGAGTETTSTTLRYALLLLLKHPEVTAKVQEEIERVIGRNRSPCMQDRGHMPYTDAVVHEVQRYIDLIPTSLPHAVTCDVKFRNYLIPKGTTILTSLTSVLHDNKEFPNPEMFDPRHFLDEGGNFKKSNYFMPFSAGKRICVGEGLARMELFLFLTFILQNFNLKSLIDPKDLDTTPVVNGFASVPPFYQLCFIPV
- Experiment summary: Inhibition of CYP2C19 activity (diazepam N-desmethylation) in human liver microsomes
- Assay type: in vitro ADME
- Recorded conditions: HLM, diazepam 150 µmol·L^−1, preincubation 30 min at 37 °C, Mean ± S.D.
Measurement type: pIC50
# pIC50 is unitless: minus log10 of the molar concentration; print number only

Prompt: Quickly give me recorded pIC50 for CN(C)CCN(C)CCN(C)C.CN(C)CCN(C)CCN(C)C.O.O.O=C([O-])/C=C/C(=O)[O-].[Cu+2].[Cu+2].[O-][Cl+3]([O-])([O-])[O-].[O-][Cl+3]([O-])([O-])[O-] [Complex No. 5, [Cu2(μ-fu)(pmdien)2(H2O)2](ClO4)2]
Completion: 5.60

Prompt: Provide measured pIC50 value, entry: CN(C)CCN(C)CCN(C)C.CN(C)CCN(C)CCN(C)C.O.O.O=C([O-])CCSSCCC(=O)[O-].[Cu+2].[Cu+2].[O-][Cl+3]([O-])([O-])[O-].[O-][Cl+3]([O-])([O-])[O-] [Complex No. 6, [Cu2(μ-dtdp)(pmdien)2(H2O)2](ClO4)2]
Completion: 5.19

----------
What IC50 was measured for each of the following?
- System tested: CYP2C8 (Homo sapiens, UniProt P10632)
- Construct: Pooled human liver microsomes were obtained from Biopredic (Rennes, France); tissue Biopredic (Rennes, France); host or cells: pooled human liver microsomes, seventeen donors
- Sequence (P10632 1-490): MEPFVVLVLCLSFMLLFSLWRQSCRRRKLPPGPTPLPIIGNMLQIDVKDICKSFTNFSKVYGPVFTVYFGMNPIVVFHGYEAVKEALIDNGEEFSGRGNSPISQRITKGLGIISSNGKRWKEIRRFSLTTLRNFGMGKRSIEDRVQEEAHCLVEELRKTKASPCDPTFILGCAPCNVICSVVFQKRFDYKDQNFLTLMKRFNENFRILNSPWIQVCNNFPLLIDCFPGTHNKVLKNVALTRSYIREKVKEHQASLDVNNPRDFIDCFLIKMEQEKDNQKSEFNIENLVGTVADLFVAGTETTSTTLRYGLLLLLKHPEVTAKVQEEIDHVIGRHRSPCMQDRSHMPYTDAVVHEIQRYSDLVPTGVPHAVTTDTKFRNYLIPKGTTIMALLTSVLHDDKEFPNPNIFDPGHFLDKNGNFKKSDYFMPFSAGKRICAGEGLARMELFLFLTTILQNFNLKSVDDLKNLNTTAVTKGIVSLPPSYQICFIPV
- Experiment summary: Inhibition of CYP2C8 activity (paclitaxel 6α-hydroxylation) in human liver microsomes
- Assay type: in vitro ADME
- Recorded conditions: HLM, paclitaxel 50 µmol·L^−1, preincubation 30 min at 37 °C, Mean ± S.D.
Phrase the answer as number then unit, nothing more needed.

Prompt: Dear colleague, please send me the reported IC50 for CN(C)CCN(C)CCN(C)C.CN(C)CCN(C)CCN(C)C.O.O.O=C([O-])/C=C/C(=O)[O-].[Cu+2].[Cu+2].[O-][Cl+3]([O-])([O-])[O-].[O-][Cl+3]([O-])([O-])[O-] [Complex No. 5, [Cu2(μ-fu)(pmdien)2(H2O)2](ClO4)2] when you can.
Completion: 3.66 µM

Prompt: Note down IC50 recorded for CN(C)CCN(C)CCN(C)C.CN(C)CCN(C)CCN(C)C.O.O.O=C([O-])CCSSCCC(=O)[O-].[Cu+2].[Cu+2].[O-][Cl+3]([O-])([O-])[O-].[O-][Cl+3]([O-])([O-])[O-] [Complex No. 6, [Cu2(μ-dtdp)(pmdien)2(H2O)2](ClO4)2]
Completion: 3.4 µM

----------
- System tested: CYP2E1 (Homo sapiens, UniProt P05181)
- Construct: Pooled human liver microsomes were obtained from Biopredic (Rennes, France); tissue Biopredic (Rennes, France); host or cells: pooled human liver microsomes, seventeen donors
- Sequence (P05181 whole entry): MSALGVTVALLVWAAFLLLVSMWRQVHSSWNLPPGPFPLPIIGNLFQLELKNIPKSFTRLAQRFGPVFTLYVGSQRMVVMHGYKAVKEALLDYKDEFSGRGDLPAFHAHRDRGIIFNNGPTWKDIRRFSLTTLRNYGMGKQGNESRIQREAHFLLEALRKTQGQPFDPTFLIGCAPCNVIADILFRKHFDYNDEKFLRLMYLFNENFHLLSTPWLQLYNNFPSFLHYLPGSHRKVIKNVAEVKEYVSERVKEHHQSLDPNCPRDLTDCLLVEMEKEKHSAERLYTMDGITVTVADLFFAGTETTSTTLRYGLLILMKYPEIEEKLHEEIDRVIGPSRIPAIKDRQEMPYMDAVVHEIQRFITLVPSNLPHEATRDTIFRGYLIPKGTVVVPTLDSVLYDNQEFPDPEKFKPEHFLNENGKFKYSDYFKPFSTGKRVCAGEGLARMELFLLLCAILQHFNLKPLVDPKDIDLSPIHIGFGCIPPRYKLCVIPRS
- Experiment summary: Inhibition of CYP2E1 activity (chlorzoxazone 6-hydroxylation) in human liver microsomes
- Format: in vitro ADME
- Recorded conditions: HLM, chlorzoxazone 30 µmol·L^−1, preincubation 30 min at 37 °C, Mean ± S.D.
Measurement type: IC50 (µM)
Write down the numeric answer in µM and omit the unit.

Prompt: Return IC50 (reported value) for this molecule: CN(C)CCN(C)CCN(C)C.CN(C)CCN(C)CCN(C)C.O.O.O=C([O-])/C=C/C(=O)[O-].[Cu+2].[Cu+2].[O-][Cl+3]([O-])([O-])[O-].[O-][Cl+3]([O-])([O-])[O-] [Complex No. 5, [Cu2(μ-fu)(pmdien)2(H2O)2](ClO4)2]
Completion: 12.5

Prompt: Consider the molecule CN(C)CCN(C)CCN(C)C.CN(C)CCN(C)CCN(C)C.O.O.O=C([O-])CCSSCCC(=O)[O-].[Cu+2].[Cu+2].[O-][Cl+3]([O-])([O-])[O-].[O-][Cl+3]([O-])([O-])[O-] [Complex No. 6, [Cu2(μ-dtdp)(pmdien)2(H2O)2](ClO4)2] and give its recorded IC50.
Completion: 6.59

----------
- System tested: CYP2C9 (Homo sapiens)
- Construct: Pooled human liver microsomes were obtained from Biopredic (Rennes, France); tissue Biopredic (Rennes, France); host or cells: pooled human liver microsomes, seventeen donors
- Sequence (P11712 whole entry): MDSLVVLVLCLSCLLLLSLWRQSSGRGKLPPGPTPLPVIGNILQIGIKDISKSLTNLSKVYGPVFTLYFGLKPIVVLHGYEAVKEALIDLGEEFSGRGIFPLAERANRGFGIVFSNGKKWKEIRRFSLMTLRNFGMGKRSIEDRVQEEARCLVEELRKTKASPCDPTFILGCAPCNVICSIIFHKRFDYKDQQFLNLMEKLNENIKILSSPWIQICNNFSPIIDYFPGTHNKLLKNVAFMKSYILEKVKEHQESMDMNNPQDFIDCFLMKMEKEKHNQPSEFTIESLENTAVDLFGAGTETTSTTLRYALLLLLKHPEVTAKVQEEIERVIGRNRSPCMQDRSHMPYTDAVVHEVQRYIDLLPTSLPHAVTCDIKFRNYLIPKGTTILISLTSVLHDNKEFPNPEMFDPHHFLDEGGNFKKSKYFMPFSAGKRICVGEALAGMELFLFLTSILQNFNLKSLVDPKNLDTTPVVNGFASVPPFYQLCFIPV
- Experiment summary: Inhibition of CYP2C9 activity (diclofenac 4′-hydroxylation) in human liver microsomes
- Assay type: in vitro ADME
- Recorded conditions: HLM, diclofenac 16 µmol·L^−1, preincubation 30 min at 37 °C, Mean ± S.D.
Assignment: determine reported pIC50 for the given compounds.
Lab note: report pIC50 as minus log10 of the concentration in molar units, number only.

Prompt: Look up and report pIC50, with CYP2C9 (Homo sapiens) as system, for CN(C)CCN(C)CCN(C)C.CN(C)CCN(C)CCN(C)C.O.O.O=C([O-])CCSSCCC(=O)[O-].[Cu+2].[Cu+2].[O-][Cl+3]([O-])([O-])[O-].[O-][Cl+3]([O-])([O-])[O-] [Complex No. 6, [Cu2(μ-dtdp)(pmdien)2(H2O)2](ClO4)2]
Completion: 4.91

Prompt: Please indicate recorded pIC50 of CN(C)CCN(C)CCN(C)C.CN(C)CCN(C)CCN(C)C.O.O.O=C([O-])/C=C/C(=O)[O-].[Cu+2].[Cu+2].[O-][Cl+3]([O-])([O-])[O-].[O-][Cl+3]([O-])([O-])[O-] [Complex No. 5, [Cu2(μ-fu)(pmdien)2(H2O)2](ClO4)2] measured with CYP2C9 (Homo sapiens).
Completion: 4.90

----------
- System tested: CYP2A6 (Homo sapiens, UniProt P11509)
- Construct: Pooled human liver microsomes were obtained from Biopredic (Rennes, France); tissue Biopredic (Rennes, France); host or cells: pooled human liver microsomes, seventeen donors
- Sequence (P11509 1-494): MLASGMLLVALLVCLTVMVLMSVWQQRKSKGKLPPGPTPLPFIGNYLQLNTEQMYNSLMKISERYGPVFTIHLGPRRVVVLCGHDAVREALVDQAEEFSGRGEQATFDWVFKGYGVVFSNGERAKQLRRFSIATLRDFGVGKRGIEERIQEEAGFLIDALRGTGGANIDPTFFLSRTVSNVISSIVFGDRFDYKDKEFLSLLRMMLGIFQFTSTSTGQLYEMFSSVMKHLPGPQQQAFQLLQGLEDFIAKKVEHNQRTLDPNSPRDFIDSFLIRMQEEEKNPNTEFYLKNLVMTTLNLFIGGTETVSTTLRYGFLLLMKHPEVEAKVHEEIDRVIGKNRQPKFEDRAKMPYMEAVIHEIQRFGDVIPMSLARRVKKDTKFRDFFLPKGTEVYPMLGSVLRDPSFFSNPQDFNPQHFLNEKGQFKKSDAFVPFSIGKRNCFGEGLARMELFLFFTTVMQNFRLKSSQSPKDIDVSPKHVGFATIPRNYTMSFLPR
- Experiment summary: Inhibition of CYP2A6 activity (coumarin 7-hydroxylation) in human liver microsomes
- Format: in vitro ADME
- Recorded conditions: HLM, coumarin 15 µmol·L^−1, preincubation 30 min at 37 °C, Mean ± S.D.
Measurement type: IC50 (µM)
Your answer should be a plain number; it is taken to be in µM.

Prompt: Respond only with IC50 recorded for CN(C)CCN(C)CCN(C)C.CN(C)CCN(C)CCN(C)C.O.O.O=C([O-])CCSSCCC(=O)[O-].[Cu+2].[Cu+2].[O-][Cl+3]([O-])([O-])[O-].[O-][Cl+3]([O-])([O-])[O-] [Complex No. 6, [Cu2(μ-dtdp)(pmdien)2(H2O)2](ClO4)2]
Completion: 25.1

Prompt: Indicate the recorded IC50 value for this compound: CN(C)CCN(C)CCN(C)C.CN(C)CCN(C)CCN(C)C.O.O.O=C([O-])/C=C/C(=O)[O-].[Cu+2].[Cu+2].[O-][Cl+3]([O-])([O-])[O-].[O-][Cl+3]([O-])([O-])[O-] [Complex No. 5, [Cu2(μ-fu)(pmdien)2(H2O)2](ClO4)2]
Completion: 24.9
